target: human type 1 glycine transporter (GlyT1) (Homo sapiens); construct: T98G cells (glioma cells) expressing human type 1 glycine transporter (GlyT1) were used; endogenous in cells; host or cells: T98G cells (human glioma cells); experiment: Glycine uptake inhibition experiment ([3H] glycine uptake in T98G cells expressing GlyT1); format: cell-based
Sequence (P48067 whole entry): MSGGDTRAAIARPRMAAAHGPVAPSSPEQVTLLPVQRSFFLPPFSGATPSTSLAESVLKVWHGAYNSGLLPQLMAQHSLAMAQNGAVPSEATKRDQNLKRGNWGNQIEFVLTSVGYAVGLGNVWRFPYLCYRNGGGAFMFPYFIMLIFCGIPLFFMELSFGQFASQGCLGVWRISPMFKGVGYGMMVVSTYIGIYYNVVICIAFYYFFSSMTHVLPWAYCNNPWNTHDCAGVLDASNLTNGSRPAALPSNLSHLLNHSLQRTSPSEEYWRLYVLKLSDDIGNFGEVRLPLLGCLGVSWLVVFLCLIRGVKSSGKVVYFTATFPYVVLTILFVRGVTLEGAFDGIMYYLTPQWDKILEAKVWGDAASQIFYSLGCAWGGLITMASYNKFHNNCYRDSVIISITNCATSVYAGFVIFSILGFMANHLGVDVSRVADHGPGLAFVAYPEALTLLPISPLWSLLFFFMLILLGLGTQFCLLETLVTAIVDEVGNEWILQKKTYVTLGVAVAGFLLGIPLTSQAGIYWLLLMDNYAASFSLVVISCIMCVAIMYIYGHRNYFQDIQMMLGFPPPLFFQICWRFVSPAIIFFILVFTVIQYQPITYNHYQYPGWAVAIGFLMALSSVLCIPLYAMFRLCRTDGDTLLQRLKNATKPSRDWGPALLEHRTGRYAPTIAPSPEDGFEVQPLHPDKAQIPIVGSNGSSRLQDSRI
pIC50: −log10 of the molar value.
MEASURED PARAMETER: pIC50

compound="O=C1N(Cc2cc(C(F)(F)F)ccn2)c2cccc(C(O)C(F)F)c2C1(F)F (single isomer, unassigned)" measured_parameter=pIC50 measured_value=7.28
compound=COc1nc(CN2C(=O)C(F)(F)c3c([C@H](C)O)cccc32)ccc1F measured_parameter=pIC50 measured_value=7.26
compound=C[C@H](O)c1cccc2c1C(F)(F)C(=O)N2Cc1cc(C#N)ncc1Cl measured_parameter=pIC50 measured_value=7.38
compound="O=C1N(Cc2cncc(Cl)c2)c2c(F)ccc(C(O)C(F)F)c2C1(F)F (single isomer, unassigned) [Compound 254]" measured_parameter=pIC50 measured_value=5.17
compound=C[C@H](O)c1cccc2c1C(F)(F)C(=O)N2Cc1ccc(C(F)(F)F)c(C#N)n1 measured_parameter=pIC50 measured_value=8.03
compound=C[C@H](O)c1cccc2c1C(F)(F)C(=O)N2Cc1cccc(C#N)n1 measured_parameter=pIC50 measured_value=7.62
compound="CCOc1ccc(CN2C(=O)C(F)(F)c3c(C(O)C(F)F)cccc32)cn1 (single isomer, unassigned)" measured_parameter=pIC50 measured_value=6.68
compound=[2H]C([2H])(c1cccc(Cl)n1)N1C(=O)C(F)(F)c2c([C@H](C)O)cccc21 measured_parameter=pIC50 measured_value=8.25
compound="CC(O)c1c(F)ccc2c1C(F)(F)C(=O)N2Cc1cncc(Cl)c1 (single isomer, unassigned) [Compound 183]" measured_parameter=pIC50 measured_value=8.17
compound=C[C@H](O)c1cccc2c1C(F)(F)C(=O)N2Cc1ncc(F)cc1Br measured_parameter=pIC50 measured_value=7.40
compound=C[C@H](O)c1cccc2c1C(F)(F)C(=O)N2Cc1ccc(F)c(C#N)n1 measured_parameter=pIC50 measured_value=8.40
compound="O=C1N(Cc2nc3cc(F)ccc3o2)c2cccc(C(O)C(F)F)c2C1(F)F (single isomer, unassigned)" measured_parameter=pIC50 measured_value=6.77
compound=C[C@H](O)c1cccc2c1C(F)(F)C(=O)N2Cc1cnccc1Cl measured_parameter=pIC50 measured_value=7.03
compound=C[C@H](O)c1cccc2c1C(F)(F)C(=O)N2Cc1cccnc1Cl measured_parameter=pIC50 measured_value=6.17
compound=C[C@H](O)c1cccc2c1C(F)(F)C(=O)N2Cc1ccc(Cl)c(Cl)n1 measured_parameter=pIC50 measured_value=8.01
compound=C[C@H](O)c1cccc2c1C(F)(F)C(=O)N2Cc1ccc(OC(F)F)nc1 measured_parameter=pIC50 measured_value=6.62
compound=COc1nc(CN2C(=O)C(F)(F)c3c([C@H](C)O)cccc32)ccc1Cl measured_parameter=pIC50 measured_value=7.24
compound="N#Cc1cccc(CN2C(=O)C(F)(F)c3c(C(O)C(F)F)cccc32)n1 (single isomer, unassigned)" measured_parameter=pIC50 measured_value=7.39
compound=C[C@H](O)c1cccc2c1C(F)(F)C(=O)N2Cc1ncccc1Cl measured_parameter=pIC50 measured_value=7.22
compound=COc1nc(C(F)(F)F)ccc1CN1C(=O)C(F)(F)c2c([C@H](C)O)cccc21 measured_parameter=pIC50 measured_value=7.24
